Hi there, I'd appreciate the recorded GI50 for every entry that follows.
System: NCI-H226
Experimental Protocol: NCI tumour cell line growth inhibition, 48 h
Activity calls are given as the source filed them. No stated cut-off is given here; in the data, active = GI50 up to about 1.1 µM and inactive = higher.

Solved entries (count: 5):
[
  {
    "Compound": "O=C1C(Cl)=C(NCCN2CCOCC2)C(=O)c2c(O)ccc(O)c21",
    "Experimental Readout": "GI50",
    "Reading": "9.95 µM (inactive)"
  },
  {
    "Compound": "O=C(Cc1ccccc1)NN1C(=O)C(Cl)C1c1ccccc1 (stereo not given)",
    "Experimental Readout": "GI50",
    "Reading": "> 100 µM (inactive)"
  },
  {
    "Compound": "C[N+]1(CCCl)CC[N+](C)(CCCl)CC1 (stereo not given)",
    "Experimental Readout": "GI50",
    "Reading": "> 100 µM (inactive)"
  },
  {
    "Compound": "O=C(C(=O)c1cc2ccccc2[nH]1)c1cc2ccccc2[nH]1",
    "Experimental Readout": "GI50",
    "Reading": "> 347 µM (inactive)"
  },
  {
    "Compound": "CN(C)CC1CC/C(=C\\c2ccc(Cl)c(Cl)c2)C1=O (stereo not given)",
    "Experimental Readout": "GI50",
    "Reading": "> 100 µM (inactive)"
  }
]

The following compounds each have a reported value; give each one's GI50.
1. CCCCCC(=O)OCC(=O)[C@H]1[C@H](C)C[C@H]2[C@@H]3C[C@H](F)C4=C/C(=N/OC(=O)c5cccc6c(=O)c7ccccc7[nH]c56)C=C[C@]4(C)[C@H]3[C@@H](O)C[C@@]21C
2. CCC(O)(Cc1ccc(OC)cc1)c1ccc(OC)cc1 (stereo not given)
3. O=C(c1ccc(Cl)cc1)C(O)c1ccc(Cl)cc1 (stereo not given)
4. CC[P+](C#Cc1ccccc1)(c1ccccc1)c1ccccc1

Result:
4.78 µM (inactive)
> 100 µM (inactive)
> 100 µM (inactive)
2.82 µM (inactive)

* * *

System: T47D
Experimental Protocol: NCI tumour cell line growth inhibition, 48 h
Activity calls are given as the source filed them. No stated cut-off is given here; in the data, active = GI50 up to about 1.1 µM and inactive = higher.
Experimental Readout: GI50

[
  {
    "Compound": "CC(=O)Oc1ccc(-c2cc3ccccc3oc2=O)cc1",
    "GI50": "52.8 µM (inactive)"
  }
]

The following compounds each have a reported value; give each one's GI50.
1. COc1c(C)c(OC)c(C(=O)CC(C)C)c(OC)c1C
2. CSCCC(NC(=O)Cc1ccc(C(=O)c2ccccc2)cc1)C(=O)O (centres undefined)
3. COc1cc(-c2oc3c(OC)c(O)cc(O)c3c(=O)c2OC)ccc1O

Result:
["68.1 µM (inactive)", "> 100 µM (inactive)", "2.38 µM (inactive)"]

The following compounds each have a reported value; give each one's GI50.
1. COC(=O)c1cc2c3c(ccc2[nH]1)N(C(=O)c1cc2cc(OC)c(OC)c(OC)c2[nH]1)CC3CCl (centres undefined)
2. COC(=O)C1(NC(=O)C(CC(=O)OCc2ccccc2)NC(=O)OCc2ccccc2)CCCCCCC1 (centres undefined)
3. Cc1cc(C)c(/C=C(\C(=C/c2c(C)cc(C)cc2C)[N+](=O)[O-])[N+](=O)[O-])c(C)c1
4. COc1ccc(N2C(=O)C3c4[nH]c5ccc(OC)cc5c4C4CCC(c5ccccc5)CC4C3C2=O)cc1 (centres undefined)
5. O=[N+]([O-])c1ccc(NN=C2c3ccccc3Cc3ccccc32)c([N+](=O)[O-])c1

Result:
["> 100 µM (inactive)", "17.6 µM (inactive)", "78.9 µM (inactive)", "20.1 µM (inactive)", "35.8 µM (inactive)"]
